- EXPERIMENTAL SYSTEM: S1P1 receptor (Homo sapiens)
- Sequence (P21453 whole entry): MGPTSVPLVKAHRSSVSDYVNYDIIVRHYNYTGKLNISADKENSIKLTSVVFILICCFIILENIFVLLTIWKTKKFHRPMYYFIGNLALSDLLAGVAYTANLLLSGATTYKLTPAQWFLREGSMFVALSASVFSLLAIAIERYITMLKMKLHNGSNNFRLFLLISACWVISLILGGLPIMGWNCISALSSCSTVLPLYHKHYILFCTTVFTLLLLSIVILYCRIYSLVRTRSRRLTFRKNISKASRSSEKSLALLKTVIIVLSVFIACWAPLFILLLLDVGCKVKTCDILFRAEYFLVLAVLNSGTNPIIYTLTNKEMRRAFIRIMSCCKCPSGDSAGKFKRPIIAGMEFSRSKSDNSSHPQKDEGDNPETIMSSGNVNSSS
- ASSAY METHOD TEXT: Ca2+ mobilization assay
- Assay type: cell-based
PROPERTY MEASURED: pEC50
Numbers only, as −log10 of the molar value.

1) CCc1cc(-c2noc(-c3cc(OC)nc(C4CCCC4)c3)n2)cc(C)c1OC[C@@H](O)CO :: 5.98

We next turn to a different molecule, shown below.
Returns the measured pEC50 for the input molecule. Input: CCCCCCCCCCCCC/C=C/[C@@H](O)[C@@H](N)COP(=O)(O)O [S1P, Sphingosine‐1‐phosphate, reference compound]
7.47

* * *

- EXPERIMENTAL SYSTEM: human S1P4 receptor (Homo sapiens, UniProt O95977)
- Sequence (O95977 1-384): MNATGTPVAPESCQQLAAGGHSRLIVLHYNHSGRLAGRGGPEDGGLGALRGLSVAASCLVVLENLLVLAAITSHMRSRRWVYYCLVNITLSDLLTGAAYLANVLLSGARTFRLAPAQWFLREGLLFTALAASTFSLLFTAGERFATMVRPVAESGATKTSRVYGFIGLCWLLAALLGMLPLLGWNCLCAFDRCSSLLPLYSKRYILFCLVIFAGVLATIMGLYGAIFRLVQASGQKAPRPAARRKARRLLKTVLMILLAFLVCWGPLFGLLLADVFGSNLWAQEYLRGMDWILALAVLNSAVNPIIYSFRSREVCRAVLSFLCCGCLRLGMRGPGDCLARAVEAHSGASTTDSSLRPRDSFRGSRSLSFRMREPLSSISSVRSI
- Assay type: biochemical
- APPLIED CONDITIONS: EC50 hS1P4, (35S)-GTPγS, CHO membranes; geometric mean, n = 2‐4
For each record, write down the corresponding pEC50.
Give bare numbers, as −log10 of the molar value.

1) CCc1cc(-c2noc(-c3cc(OC)nc(C4CCCC4)c3)n2)cc(C)c1OC[C@@H](O)CO [Cenerimod] :: 5.67

Read the next record carefully.
Find the recorded pEC50 belonging to CCCCCCCCCCCCC/C=C/[C@@H](O)[C@@H](N)COP(=O)(O)O [S1P, Sphingosine‐1‐phosphate, reference compound] and report it.
7.22
